GI50: recorded values
System: SK-MEL-2
Test: NCI tumour cell line growth inhibition, 48 h
Active and inactive are the calls of the source. No stated cut-off is given here; in the data, active = GI50 up to about 1.1 µM and inactive = higher.

Here's what some known entries look like.
MOLECULE	MEASURED VALUE
CCOC(=O)NC/C=C/CO	> 100 µM (inactive)
CN(C)CS/C(N)=N\C(O)C(Cl)(Cl)Cl (stereo not drawn)	> 100 µM (inactive)

Which GI50 value is on record for `CC(=O)OCC1=C(COC(C)=O)C(=O)c2c(O)ccc(O)c2C1=O` ? 3.11 µM (inactive)

###

Tested on: LOX IMVI
Assay: NCI tumour cell line growth inhibition, 48 h
Active and inactive are the calls of the source. No stated cut-off is given here; in the data, active = GI50 up to about 1.1 µM and inactive = higher.
Respond using exactly one of the listed classes: active, inactive

For orientation, consider the following solved cases.
COMPOUND	LABEL VALUE
O=c1cc(/C=C/c2ccc(O)c(O)c2)cc(/C=C/c2ccc(O)c(O)c2)o1	inactive
COC(=O)C(Cc1c[nH]c2ccccc12)NC(=O)c1ccc(-c2ccc(Cl)cc2Cl)o1 (stereo not given)	inactive
CCCCC/C=C1\CCC(CN2CCOCC2)C1=O (stereo not given)	inactive
CCc1n[nH]c(=O)n1/N=C(\C)c1ccccc1	inactive
Cc1c(Cl)cccc1NC(=O)C(=O)c1c(O)c2ccc(O)cc2oc1=O	inactive
CCOC(=O)CCC(NC(=O)c1ccc(OCc2ccc3nc(-c4ccccc4)c(Cl)nc3c2)cc1)C(=O)OCC (stereo not given)	inactive

Short answer needed: outcome of this test for `CCNC(=S)NNC(=O)c1csc(NC(=S)NC2CCCCC2)n1` ? inactive

Short answer needed: outcome of this test for `Nc1nc(N)c(CCCCc2ccccc2)c(N)n1` ? inactive

Short answer needed: outcome of this test for `Clc1ccc(CCc2ccncn2)c(Cl)c1` ? inactive

Short answer needed: outcome of this test for `CC(=O)N(/N=C\c1ccc([N+](=O)[O-])cc1)c1ccccc1` ? inactive

Short answer needed: outcome of this test for `CC(C)(C)OC(=O)[C@H]1CCC(=S)N1Cc1ccccc1` ? inactive

Short answer needed: outcome of this test for `NC(=O)c1c([N+](=O)[O-])cc(C(F)(F)F)cc1[N+](=O)[O-]` ? inactive

Short answer needed: outcome of this test for CC[N+]1(C)CCC(O)(c2ccc(Cl)c(Cl)c2)C(C(=O)c2ccc(Cl)c(Cl)c2)C1 (stereo not given) ? inactive

Short answer needed: outcome of this test for C[C@]12CC/C(=N\OCCN3CCCCC3)C=C1CCC1C2CC[C@@]2(C)C1CC[C@]2(C)O (stereo not given in full) ? inactive

###

Tested on: NCI-H522
Experiment: NCI tumour cell line growth inhibition, 48 h
Active and inactive are the calls of the source. Cut-off read from the data, not from the text of the source: active = GI50 up to about 1.1 µM and inactive = higher.
GI50: recorded values

Here's what some known entries look like.
MOLECULE	MEASURED VALUE
O=C(O)c1ccc(C2C(=O)N[C@@H]3CCC[C@H]23)cc1 (some centres not stated)	> 100 µM (inactive)
Cc1ccc(-n2cc(-c3ccc(Cl)cc3)c3c(NN)ncnc32)cc1	3.58 µM (inactive)
CCOC(=O)C1=C(C)N(c2ccc(C)cc2)C2(O)C=CC(O)=C3C(=O)c4ccccc4C(=O)C312 (configuration not stated)	16.1 µM (inactive)
Cc1ccc(N2C(=O)C3C=CC(n4[nH]c(=O)n(Cc5ccccc5)c4=O)CC3C2=O)cc1 (configuration not stated)	> 100 µM (inactive)
CCCCc1c2c(nc3c1CCc1cc(C=O)c(N)nc1-3)/C(=C/c1ccccc1)CCC2	> 100 µM (inactive)

Could you share what GI50 was measured for `CCCCI(O)OS(=O)(=O)c1ccc(C)cc1` , tested on NCI-H522? 22.5 µM (inactive)

Could you share what GI50 was measured for CC(NC(=O)/C(C#N)=C/c1ccc2[nH]ccc2c1)c1ccccc1 (configuration not stated) , tested on NCI-H522? 12.8 µM (inactive)

Could you share what GI50 was measured for `CCN(CC)CCSc1nc2c(c(=N)n1-c1ccccc1)c(=S)n(-c1ccccc1)c(=S)n2-c1ccccc1` , tested on NCI-H522? 0.843 µM (active)

Could you share what GI50 was measured for `C/C(N)=[N+](/C)[O-]` , tested on NCI-H522? 72.6 µM (inactive)

Could you share what GI50 was measured for `NC(=O)c1c([N+](=O)[O-])cc(C(F)(F)F)cc1[N+](=O)[O-]` , tested on NCI-H522? 21.5 µM (inactive)

###

GI50: recorded values
Test system: HT-29
Assay: NCI tumour cell line growth inhibition, 48 h
Active and inactive are the calls of the source. No stated cut-off is given here; in the data, active = GI50 up to about 1.1 µM and inactive = higher.

MOLECULE	GI50
CC#CC(O)(C(=O)OC1CC2CCC(C1)N2C)C1CCCC1 (stereo not drawn)	> 100 µM (inactive)

Please examine the following record next.
Which GI50 value is on record for O=c1onc2n1-c1cc(Cl)ccc1C(=S)N1CSCC21 (stereo not drawn) ? > 100 µM (inactive)

###

Test system: DMS-273
Test: NCI tumour cell line growth inhibition, 48 h
Active and inactive are the calls of the source. Cut-off read from the data, not from the text of the source: active = GI50 up to about 1.1 µM and inactive = higher.
ASSAY READOUT: GI50

Here's what some known entries look like.
COMPOUND	MEASURED VALUE
CCCN(CCCC(NC(C)=O)C(=O)NCc1ccccc1)C(=O)N(CCCl)N=O (centres undefined)	4.52 µM (inactive)
N[C@H]1C2C3CC4C5CC(C42)C1(c1ccccc1)C53 (some centres undefined)	> 100 µM (inactive)
CCCCCCN(CCCCCC)C(=S)N/N=C(\C)c1ccccn1	1.63 µM (inactive)
c1cncc(C2N3CCCCC3[C@@H]3c4[nH]c5ccccc5c4CCN23)c1 (some centres undefined)	> 100 µM (inactive)
Cc1ccc(-n2cc(/C(N)=N/O)c3ccccc3c2=O)cc1	> 100 µM (inactive)
COc1ccc(/C(=C/n2ccnc2)C(=O)c2ccc(OC)c(OC)c2)cc1	> 100 µM (inactive)

Which GI50 value is on record for `O=C1C(c2ccc(C3=[N+]([O-])c4cc([N+](=O)[O-])ccc4C3=O)cc2)=[N+]([O-])c2cc([N+](=O)[O-])ccc21` ? > 10 µM (inactive)

Which GI50 value is on record for Cc1ccc(N2C(=O)C3C=CC(n4[nH]c(=O)n(Cc5ccccc5)c4=O)CC3C2=O)cc1 (centres undefined) ? > 100 µM (inactive)

Which GI50 value is on record for `CCCCCCCCCCCCCCCC/C(C(=O)OC)=C(/O)C(=O)OCC` ? > 100 µM (inactive)

###

Test system: SF-539
Assay: NCI tumour cell line growth inhibition, 48 h
Calls of active or inactive are those of the source. Cut-off read from the data, not from the text of the source: active = GI50 up to about 1.1 µM and inactive = higher.
GI50: recorded values

Here's what some known entries look like.
MOLECULE	MEASURED VALUE
Cc1ccccc1-n1c(=O)c2ncn(C3CCCO3)c2n(-c2ccccc2C)c1=S (stereo not drawn)	> 100 µM (inactive)
CN(C)c1cccc(F)c1C(=O)NC(=O)Nc1ccc(Cl)cc1	3.15 µM (inactive)

Please examine the following record next.
Which GI50 value is on record for `CSC1=NN(c2ccccc2)C(=O)C1=C(SC)SC` ? 21.7 µM (inactive)

###

Tested on: HOP-62
Assay: NCI tumour cell line growth inhibition, 48 h
Activity calls are given as the source filed them. Cut-off read from the data, not from the text of the source: active = GI50 up to about 1.1 µM and inactive = higher.
GI50: recorded values

COMPOUND	STUDY SYSTEM	ASSAY READOUT	MEASURED VALUE
N#Cc1nc(-c2ccc(-c3nc(C#N)c(N)o3)cc2)oc1N	HOP-62	GI50	> 10 µM (inactive)
CS(=O)(=O)OC1CCN(C2(c3cccc(O)c3)CCCCC2)CC1	HOP-62	GI50	36.1 µM (inactive)
CCOC(=O)C1(C/C=C\CBr)CCCC1=O (stereo not given)	HOP-62	GI50	29.1 µM (inactive)
O=c1cnn(CCOCP(=O)(O)O)c(=O)[nH]1	HOP-62	GI50	> 100 µM (inactive)
COc1ccc(NC(=O)CC(=O)NN)cc1	HOP-62	GI50	> 100 µM (inactive)
NC(=O)COc1c(Br)cc(Br)cc1Br	HOP-62	GI50	> 100 µM (inactive)
O=C(Nc1ccn(C2CCC(CO)O2)c(=O)n1)c1ccccc1 (stereo not given)	HOP-62	GI50	> 100 µM (inactive)
CN(CCCNC(=O)c1nn(C)c2c1Cc1ccccc1-2)CCCNC(=O)c1nn(C)c2c1Cc1ccccc1-2	HOP-62	GI50	10.8 µM (inactive)

Which GI50 value is on record for Cn1c2c3ccccc3nc-2c(O)c2ccccc21 [HYDROXYCRYPTOLEPINE] ? > 100 µM (inactive)

Which GI50 value is on record for `CO[C@H]1O[C@@H]2CO[C@@H](c3ccccc3)O[C@H]2C[C@]12CCC/C=C\CO2` ? 16.9 µM (inactive)

Which GI50 value is on record for `CCc1n[nH]c(=O)n1/N=C(\C)c1ccccc1` ? > 100 µM (inactive)

###

GI50: recorded values
Tested on: NCI/ADR-RES
Assay: NCI tumour cell line growth inhibition, 48 h
Calls of active or inactive are those of the source. Rule as the data show it: active = GI50 up to about 1.1 µM and inactive = higher.

Here's what some known entries look like.
COMPOUND	GI50
CCCCCCCCCC(=O)NC(CCC(=O)N(CCNC(=O)c1nc(-c2ccccc2)oc1-c1ccccc1)Cc1ccccc1)C(=O)O (stereo not drawn)	16.6 µM (inactive)
Cc1ccc2c(/C=C/c3ccc(N(C)C)cc3)ccnc2c1C	33.2 µM (inactive)

Please examine the following record next.
Could you share what GI50 was measured for `O=c1cc(/C=C/c2ccc(O)c(O)c2)cc(/C=C/c2ccc(O)c(O)c2)o1` , tested on NCI/ADR-RES? 32.9 µM (inactive)
